B1: library; a variant is named by its letters at N, in order (parent)
chain: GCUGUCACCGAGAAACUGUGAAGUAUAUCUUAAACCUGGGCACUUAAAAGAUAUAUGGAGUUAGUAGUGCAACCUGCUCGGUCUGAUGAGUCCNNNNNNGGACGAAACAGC

variants of: B1; experiment: normalized RNA/DNA level with ligand (relative to sTRSVctl = 100) (log10 (% of sTRSVctl)); HEK293T; ligand: cyclic di-GMP (c-di-GMP-II aptamer); ligand concentration (+) RNA-Seq: 1 mM; higher = less ribozyme self-cleavage, higher mRNA level; conditions: reporter: mCherry (pCS4076), ligand present: yes
metric.name: normalized RNA/DNA level with ligand (log10)
One number for each entry.

Example results:
residue.change: CAACGC
experimental.result: 1.84
//
residue.change: AGUUAC
experimental.result: 1.85
//
residue.change: GAAUUU
experimental.result: 1.85
//
residue.change: AAGAAU
experimental.result: 1.74

Give normalized RNA/DNA level with ligand (log10) for each of the items listed below.
1. UGAAAG
2. AGUUCC
3. ACUGUC
4. UACGAA
5. UGUAAC
6. ACCUCG
7. CUCCCU

Key:
1: 1.87; 2: 1.9; 3: 1.8; 4: 1.76; 5: 1.84; 6: 1.83; 7: 1.76

Data provenance: the supplement of paper PMC6757056
